Measurement target: DNA repair and recombination protein RAD54-like (Homo sapiens, UniProt Q92698)
Sequence (Q92698 whole entry): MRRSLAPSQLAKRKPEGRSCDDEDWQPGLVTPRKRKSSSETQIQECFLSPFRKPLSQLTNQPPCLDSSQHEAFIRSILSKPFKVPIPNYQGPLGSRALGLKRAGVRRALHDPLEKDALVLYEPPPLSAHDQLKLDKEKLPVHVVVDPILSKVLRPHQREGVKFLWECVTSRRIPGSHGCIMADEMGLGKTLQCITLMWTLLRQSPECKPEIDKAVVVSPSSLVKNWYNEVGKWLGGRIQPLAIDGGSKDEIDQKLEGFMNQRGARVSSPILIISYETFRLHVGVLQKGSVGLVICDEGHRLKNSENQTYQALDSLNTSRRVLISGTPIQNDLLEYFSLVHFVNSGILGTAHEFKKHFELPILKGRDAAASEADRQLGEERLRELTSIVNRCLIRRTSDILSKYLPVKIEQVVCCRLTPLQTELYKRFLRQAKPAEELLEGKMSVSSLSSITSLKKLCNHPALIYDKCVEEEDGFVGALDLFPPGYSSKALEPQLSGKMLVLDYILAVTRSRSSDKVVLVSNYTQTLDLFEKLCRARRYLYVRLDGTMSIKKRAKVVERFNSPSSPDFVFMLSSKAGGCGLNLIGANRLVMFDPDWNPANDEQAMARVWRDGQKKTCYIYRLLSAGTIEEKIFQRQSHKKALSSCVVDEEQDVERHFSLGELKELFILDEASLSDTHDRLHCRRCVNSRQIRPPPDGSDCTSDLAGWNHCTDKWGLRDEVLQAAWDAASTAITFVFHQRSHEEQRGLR
Protocol: inhibitors of human RAD54 branch migration, confirmation, biochemical, fluorescence, cherry-picked samples, dose series (AID 651657)
Format: functional
Activity calls are given as the source filed them.
Hi! Could you answer with just one of these? Y = active, N = inactive

Chemical smiles	Measurement target	Group
COc1cccc2sc3cc(NCC[C@@H]4CCCN4C)ccc3c(=O)c12	DNA repair and recombination protein RAD54-like (Homo sapiens, UniProt Q92698)	Y
COc1ccc(-c2oc3ncnc(NCCCN(C)C)c3c2-c2ccc(OC)cc2)cc1	DNA repair and recombination protein RAD54-like (Homo sapiens, UniProt Q92698)	Y
CCN(CC)CCN(C(=O)C1=COCCO1)c1nc2c(OC)ccc(OC)c2s1	DNA repair and recombination protein RAD54-like (Homo sapiens, UniProt Q92698)	Y

Now consider a different compound.
How was "O=C(Nc1ccc(Nc2ccncc2)cc1)c1ccc(Nc2ccnc3ccc([N+](=O)[O-])cc23)cc1" classified in this test? N

---

Measurement target: Nucleotide-binding oligomerization domain-containing protein 1 (Homo sapiens, UniProt Q9Y239)
Sequence (Q9Y239 whole entry, the tested form may be a part): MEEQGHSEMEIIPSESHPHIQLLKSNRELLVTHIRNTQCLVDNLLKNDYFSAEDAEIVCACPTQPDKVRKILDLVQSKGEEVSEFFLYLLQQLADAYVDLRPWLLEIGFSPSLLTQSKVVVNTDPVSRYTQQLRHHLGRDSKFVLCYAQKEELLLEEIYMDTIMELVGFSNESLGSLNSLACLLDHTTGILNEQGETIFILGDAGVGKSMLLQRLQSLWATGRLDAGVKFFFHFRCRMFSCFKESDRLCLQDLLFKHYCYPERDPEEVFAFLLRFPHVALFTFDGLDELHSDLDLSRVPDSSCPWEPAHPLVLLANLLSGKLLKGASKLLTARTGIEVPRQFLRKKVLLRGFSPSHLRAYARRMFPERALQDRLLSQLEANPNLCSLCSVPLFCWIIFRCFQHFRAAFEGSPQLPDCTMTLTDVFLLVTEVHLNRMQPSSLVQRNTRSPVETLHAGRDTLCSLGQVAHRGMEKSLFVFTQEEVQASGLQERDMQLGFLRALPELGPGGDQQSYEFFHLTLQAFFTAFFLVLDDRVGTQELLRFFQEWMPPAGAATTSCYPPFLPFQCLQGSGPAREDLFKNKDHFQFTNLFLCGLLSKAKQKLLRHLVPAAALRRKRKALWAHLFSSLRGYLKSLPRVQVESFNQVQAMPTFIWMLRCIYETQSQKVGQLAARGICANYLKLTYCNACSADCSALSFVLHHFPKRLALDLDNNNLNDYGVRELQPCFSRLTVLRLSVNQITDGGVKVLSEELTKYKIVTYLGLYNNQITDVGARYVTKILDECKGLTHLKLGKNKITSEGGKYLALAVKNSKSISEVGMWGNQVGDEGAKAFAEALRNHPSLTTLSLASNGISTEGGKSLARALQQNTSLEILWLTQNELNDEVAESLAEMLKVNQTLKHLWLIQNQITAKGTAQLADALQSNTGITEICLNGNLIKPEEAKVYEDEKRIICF
Protocol: NOD1 signaling inhibitors, SAR follow-up, revised (AID 2333)
Format: functional
Active and inactive are the calls of the source.
Hi! Could you answer with just one of these? Y for active, N for inactive

Chemical smiles	Group
Cc1ccccc1C(=O)Nc1nc2ccccc2n1Cc1ccc(Cl)cc1	N
O=C(Nc1ccc(Cl)c(Cl)c1)c1ccc(CN2CCc3ccccc3C2)cc1	Y
O=C(C1CC1)N1CCc2cc(S(=O)(=O)N3CCN(c4ccc([N+](=O)[O-])cc4)CC3)ccc21	Y

How was "O=C(CSc1nc2scc(-c3ccccc3)c2c(=O)[nH]1)Nc1ccc(C(F)(F)F)cc1" classified in this test? Y

---

Measurement target: Fatty acid synthase (Homo sapiens, UniProt P49327)
Sequence (P49327 whole entry, the tested form may be a part): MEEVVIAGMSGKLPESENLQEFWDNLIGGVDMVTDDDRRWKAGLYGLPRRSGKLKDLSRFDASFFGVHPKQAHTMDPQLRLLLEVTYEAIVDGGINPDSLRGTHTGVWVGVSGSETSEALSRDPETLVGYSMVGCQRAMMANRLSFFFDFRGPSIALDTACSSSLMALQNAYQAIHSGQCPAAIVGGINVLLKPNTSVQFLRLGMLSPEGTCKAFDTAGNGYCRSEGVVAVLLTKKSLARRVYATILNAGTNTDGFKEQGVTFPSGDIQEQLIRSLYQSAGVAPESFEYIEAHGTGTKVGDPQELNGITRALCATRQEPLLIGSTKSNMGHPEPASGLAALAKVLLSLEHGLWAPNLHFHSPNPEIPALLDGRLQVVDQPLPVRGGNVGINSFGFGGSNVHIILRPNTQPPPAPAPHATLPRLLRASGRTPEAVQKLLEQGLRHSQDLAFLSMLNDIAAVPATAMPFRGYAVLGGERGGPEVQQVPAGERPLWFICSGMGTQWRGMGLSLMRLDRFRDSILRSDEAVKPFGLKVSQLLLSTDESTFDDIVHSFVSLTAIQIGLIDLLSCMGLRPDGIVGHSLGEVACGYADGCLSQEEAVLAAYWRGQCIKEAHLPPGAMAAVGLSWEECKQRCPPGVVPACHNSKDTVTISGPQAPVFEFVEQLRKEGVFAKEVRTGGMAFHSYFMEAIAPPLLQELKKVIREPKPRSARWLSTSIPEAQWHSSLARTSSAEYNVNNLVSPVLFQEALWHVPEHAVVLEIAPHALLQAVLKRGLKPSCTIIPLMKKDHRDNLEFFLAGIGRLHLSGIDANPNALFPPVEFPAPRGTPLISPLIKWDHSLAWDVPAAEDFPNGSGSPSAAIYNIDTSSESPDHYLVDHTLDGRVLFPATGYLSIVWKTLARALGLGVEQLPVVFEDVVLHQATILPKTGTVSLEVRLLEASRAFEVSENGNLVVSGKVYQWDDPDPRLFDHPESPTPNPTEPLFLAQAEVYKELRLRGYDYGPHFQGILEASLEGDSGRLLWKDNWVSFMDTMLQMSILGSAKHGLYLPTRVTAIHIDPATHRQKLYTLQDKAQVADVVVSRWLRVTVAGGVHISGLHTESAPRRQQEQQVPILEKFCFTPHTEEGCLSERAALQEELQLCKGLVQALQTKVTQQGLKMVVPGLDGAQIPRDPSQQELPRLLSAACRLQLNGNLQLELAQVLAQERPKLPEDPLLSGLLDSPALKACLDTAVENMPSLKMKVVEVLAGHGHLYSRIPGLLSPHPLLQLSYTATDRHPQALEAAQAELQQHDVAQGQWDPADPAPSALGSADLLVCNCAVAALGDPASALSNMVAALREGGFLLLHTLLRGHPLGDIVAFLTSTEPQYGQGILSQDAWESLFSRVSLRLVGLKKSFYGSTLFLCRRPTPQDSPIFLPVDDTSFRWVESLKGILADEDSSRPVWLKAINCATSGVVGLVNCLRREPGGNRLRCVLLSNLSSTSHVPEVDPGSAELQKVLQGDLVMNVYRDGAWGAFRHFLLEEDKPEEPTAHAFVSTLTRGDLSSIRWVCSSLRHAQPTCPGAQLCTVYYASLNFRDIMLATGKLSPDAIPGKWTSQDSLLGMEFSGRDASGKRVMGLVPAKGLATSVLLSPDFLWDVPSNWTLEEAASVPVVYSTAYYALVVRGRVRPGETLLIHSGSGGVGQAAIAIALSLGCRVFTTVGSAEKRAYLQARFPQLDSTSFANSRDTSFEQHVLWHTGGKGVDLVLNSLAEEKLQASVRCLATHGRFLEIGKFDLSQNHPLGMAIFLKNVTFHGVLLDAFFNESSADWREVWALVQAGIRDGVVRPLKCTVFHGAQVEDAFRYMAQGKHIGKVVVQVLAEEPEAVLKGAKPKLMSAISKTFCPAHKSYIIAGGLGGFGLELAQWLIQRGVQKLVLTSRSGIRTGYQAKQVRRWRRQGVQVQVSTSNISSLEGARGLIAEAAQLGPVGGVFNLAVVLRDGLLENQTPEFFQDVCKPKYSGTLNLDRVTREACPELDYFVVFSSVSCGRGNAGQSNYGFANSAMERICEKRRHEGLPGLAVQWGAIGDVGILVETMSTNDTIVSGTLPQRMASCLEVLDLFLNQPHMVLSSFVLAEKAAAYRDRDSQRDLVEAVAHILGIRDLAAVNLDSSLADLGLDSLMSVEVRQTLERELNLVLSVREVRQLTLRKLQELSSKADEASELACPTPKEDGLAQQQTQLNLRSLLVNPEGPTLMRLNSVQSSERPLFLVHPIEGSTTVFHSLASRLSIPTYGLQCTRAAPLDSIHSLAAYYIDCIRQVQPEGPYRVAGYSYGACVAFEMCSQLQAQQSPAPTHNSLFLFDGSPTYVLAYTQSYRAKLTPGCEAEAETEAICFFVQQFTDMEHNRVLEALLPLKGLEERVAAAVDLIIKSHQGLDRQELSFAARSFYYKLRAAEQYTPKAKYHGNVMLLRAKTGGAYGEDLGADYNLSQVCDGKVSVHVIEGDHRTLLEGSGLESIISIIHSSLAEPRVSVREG
Protocol: FAS thioesterase domain inhibitors, dose response, biochemical, endpoint fluorescence intensity, uHTS hits (AID 624327);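 note: fluorescence from hydrolysis of an O-methyl fluorescein acyl ester substrate by the enzyme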
Type: functional
Activity calls are given as the source filed them.
Property measured: IC50

Reference set (4 entries):
Molecule	IC50
C[C@@H](NC(=O)c1[nH]cnc1C(=O)Nc1ccc(Cl)cc1)c1ccccc1	8.13 µM (active)
COc1ccc(NC(=O)Nc2cccc3c2O[C@H](CN(C)C(=O)Nc2ccc(C(F)(F)F)cc2)[C@@H](C)CN([C@H](C)CO)C3=O)cc1	11.6 µM (active)
Cc1cc(-c2ccccc2)nc(N/N=C/c2ccc([N+](=O)[O-])cc2)n1	8.37 µM (active)
O=C1C(F)=CC(COC(c2ccccc2)(c2ccccc2)c2ccccc2)OC1n1cc(F)c(=O)[nH]c1=O (configuration not stated)	7.69 µM (active)

Each molecule below has a recorded value; state its IC50.
1. CN(CC(=O)Nc1ccc(F)cc1)C(=O)COC(=O)c1cc([N+](=O)[O-])ccc1N1CCOCC1
2. COc1ccccc1NC(=O)COC(=O)c1cc([N+](=O)[O-])ccc1N1CCCC1
3. O=C(NCCN1C(=O)S/C(=C\c2ccccc2)C1=O)C1CCN(S(=O)(=O)c2cccs2)CC1

1. 6.68 µM (active)
2. 5 µM (active)
3. 16.2 µM (active)

---

Measurement target: UniProt G5EF15
Sequence (G5EF15 whole entry, the tested form may be a part): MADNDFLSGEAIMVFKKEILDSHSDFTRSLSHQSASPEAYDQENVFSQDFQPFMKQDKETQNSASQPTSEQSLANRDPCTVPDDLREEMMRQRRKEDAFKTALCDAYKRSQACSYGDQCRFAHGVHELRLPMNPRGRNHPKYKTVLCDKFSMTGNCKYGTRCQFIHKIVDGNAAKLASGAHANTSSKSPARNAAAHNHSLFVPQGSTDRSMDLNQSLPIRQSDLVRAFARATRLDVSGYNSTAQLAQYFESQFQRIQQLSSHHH
Protocol: inhibitors of POS-1/mex-3 RNA binding, dose response, biochemical, fluorescence polarization (AID 1964);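 note: purified POS-1 fused to maltose binding protein made in E. coli; potency of compounds blocking POS-1 binding to fluorescent RNA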
Active and inactive are the calls of the source.
Kindly state EC50 for each of the entries shown.

Reference set (4 entries):
Compound	EC50
C/N=C1\S/C(=C\c2ccc(O)c(OC)c2)C(=O)N1C	> 300 µM (not active)
CCCn1c(=N)c(C(=O)NCC2CCCO2)cc2c(=O)n3cccc(C)c3nc21 (stereo not given)	> 300 µM (not active)
O=C1c2ccccc2S(=O)(=O)c2cc(N3CCC(C(=O)N4CCCCC4)CC3)ccc21	> 300 µM (not active)
CCN1/C(=C2/SC(=S)N(NC(C)=O)C2=O)Sc2ccccc21	60.7 µM (active)

Record "Cc1cc(=O)nc2c3ccccc3n(CC(=O)Nc3ccccc3Br)n12" . Reported EC50: > 300 µM (not active)
